# experimental.system: T1, HCoV-229E NTD (17–265 aa) (human coronavirus 229E, UniProt P15423 17-265)
# T1 chain: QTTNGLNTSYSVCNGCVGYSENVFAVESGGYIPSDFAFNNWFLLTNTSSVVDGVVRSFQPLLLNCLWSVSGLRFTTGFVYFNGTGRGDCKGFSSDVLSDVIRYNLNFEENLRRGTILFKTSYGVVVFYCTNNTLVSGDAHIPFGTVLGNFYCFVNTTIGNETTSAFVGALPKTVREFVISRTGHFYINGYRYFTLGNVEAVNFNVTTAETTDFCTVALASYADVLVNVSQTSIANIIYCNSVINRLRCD
# procedure.details: SPR
So I've got a bunch of binders here, and I need their koff values.
Please give a number only; it is taken to be in s⁻¹.

Recorded result, Fab A01 (Fab, V domains shown) VH: EVQLVESGGGLVQPGGSLRLSCAASGFNISSSYIHWVRQAPGKGLEWVASIYSYYSSTSYADSVKGRFTISADTSKNTAYLQMNSLRAEDTAVYYCARGGYAFYGYGSPHSWYALDYWGQGTLVTVSS VL: DIQMTQSPSSLSASVGDRVTITCRASQSVSSAVAWYQQKPGKAPKLLIYSASSLYSGVPSRFSGSRSGTDFTLTISSLQPEDFATYYCQQWWPGSWGPITFGQGTKVEIK , koff: 0.00076

Recorded result, Fab F07 (Fab, V domains shown) VH: EVQLVESGGGLVQPGGSLRLSCAASGFNISYYSIHWVRQAPGKGLEWVASIYPYYGYTSYADSVKGRFTISADTSKNTAYLQMNSLRAEDTAVYYCARSSGYYHYPYSHSGLDYWGQGTLVTVSS VL: DIQMTQSPSSLSASVGDRVTITCRASQSVSSAVAWYQQKPGKAPKLLIYSASSLYSGVPSRFSGSRSGTDFTLTISSLQPEDFATYYCQQSYYWGGPITFGQGTKVEIK , koff: 0.00053

Recorded result, Fab D12 (Fab, V domains shown) VH: EVQLVESGGGLVQPGGSLRLSCAASGFNLSSYSMHWVRQAPGKGLEWVAYISPYYSYTSYADSVKGRFTISADTSKNTAYLQMNSLRAEDTAVYYCARVWYHSYPGWVPWGSWAFDYWGQGTLVTVSS VL: DIQMTQSPSSLSASVGDRVTITCRASQSVSSAVAWYQQKPGKAPKLLIYSASSLYSGVPSRFSGSRSGTDFTLTISSLQPEDFATYYCQQAYYSPITFGQGTKVEIK , koff: 0.00043

Recorded result, Fab B10 (Fab, V domains shown) VH: EVQLVESGGGLVQPGGSLRLSCAASGFNLSSSSMHWVRQAPGKGLEWVAYIYPSYSSTYYADSVKGRFTISADTSKNTAYLQMNSLRAEDTAVYYCARASGHFWAYGFDYWGQGTLVTVSS VL: DIQMTQSPSSLSASVGDRVTITCRASQSVSSAVAWYQQKPGKAPKLLIYSASSLYSGVPSRFSGSRSGTDFTLTISSLQPEDFATYYCQQYSYSGPFTFGQGTKVEIK , koff: 0.00069

Recorded result, Fab D04 (Fab, V domains shown) VH: EVQLVESGGGLVQPGGSLRLSCAASGFNLSSYYIHWVRQAPGKGLEWVASISPYSSSTYYADSVKGRFTISADTSKNTAYLQMNSLRAEDTAVYYCARWYSPSYGWYWPYASGAGGLDYWGQGTLVTVSS VL: DIQMTQSPSSLSASVGDRVTITCRASQSVSSAVAWYQQKPGKAPKLLIYSASSLYSGVPSRFSGSRSGTDFTLTISSLQPEDFATYYCQQSSPHYLITFGQGTKVEIK , koff: 0.0026
